protocol-text: Standard protocol for determination of kcat and KM (continuous spectrophotometric assay, Acetyl CoA hydrolysis at 235 nm)
Format: biochemical
assay-setup: purified protein; about 23° C.; 20 mM HEPES pH 6.8, 10% ethylene glycol, 0.2 mM acetyl CoA
measurement-kind: Kcat

molecule	Kcat
SEQ ID NO: 469: GAT polypeptide (protein, 1_2A12, GAT polypeptide) MIEVKPINAEDTYELRHRILRPNQPIEACMYESDLLRGSFHLGGFYRGKLISIASFHQAEQSELEGQKQYQLRGMATLEGYRDQKAGSTLIKHAEEILRKKGADLLWCNARTSAAGYYKRLGFSEQGEIFDTPPVGPHILMYKRLT	3.82 s⁻¹

We next turn to a different molecule, shown below.
Sure, the documented Kcat for SEQ ID NO: 498: GAT polypeptide (protein, 6_1D5, GAT polypeptide) MIEVKPINAEDTYELRHKILRPNQPLEVCMYETDLLRGAFHLGGFYRGKLISIASFHQAEHSDLQGQKQYQLRGMATLEGYRDQKAGSSLIRHAEQILRKRGADMLWCNARTSASGYYKKLGFSEQGEVFETPPVGPHILMYKRIT is 0.7153 s⁻¹
